Source of measurements: patent US20210355194A1

Study Target: CV S-protein construct 6 trimer TP31001F (SARS-CoV-2, UniProt P0DTC2 14-1208)
Assay Info: SPR
pKd: −log10 of the molar value.
Use 9 as the dividing line for pKd, with the line itself on the y side and lower values as n.

Binder	Discrete Label
variant 5-32 (Fc fusion) VHH: EVQLVESGGGLVQPGGSLRLSCAASGFTPDNYAMGWFRQAPGKEREFVAALGWSGVTTYHYYADSVKGRFTISADNSKNTAYLQMNSLKPEDTAVYYCASDESDAANWGQGTLVTVSS	y
variant 5-15 (Fc fusion) VHH: EVQLVESGGGLVQPGGSLRLSCAASGFTFDGAAMGWFRQAPGKEREFVATIRWTNSTDYADSVKGRFTISADNSKNTAYLQMNSLKPEDTAVYYCARGRYGIVERWGQGTLVTVSS	n
variant 5-16 (Fc fusion) VHH: EVQLVESGGGLVQPGGSLRLSCAASGRTHSIYPMGWFRQAPGKERELVAAIHSGGATVYADSVKGRFTISADNSKNTAYLQMNSLKPEDTAVYYCAARRWIPPGPIWGQGTLVTVSS	n
